System: Pseudomonas aeruginosa
Test: Antibacterial activity against Pseudomonas aeruginosa ATCC 27853 a after 24 hrs by micro broth dilution assay
Type: functional
Conditions: ATCC 27853, 24 h
MIC values by entry
readout_label: MIC (µM)

{"mol_smiles": "O=c1c2ccc(F)cc2ncn1CCCCn1cnc([N+](=O)[O-])c1", "readout_label": "MIC", "display_unit": "µM", "value_modifier": "=", "numeric_readout": 770}
{"mol_smiles": "O=c1c2ccc(F)cc2ncn1CCCCCBr", "readout_label": "MIC", "display_unit": "µM", "value_modifier": ">", "numeric_readout": 1630}
{"mol_smiles": "O=c1c2ccc(Cl)cc2ncn1CCCCCCCCCCn1cnc([N+](=O)[O-])c1", "readout_label": "MIC", "display_unit": "µM", "value_modifier": "=", "numeric_readout": 70}
{"mol_smiles": "O=c1c2ccc(F)cc2ncn1CCCCCn1cnc([N+](=O)[O-])c1", "readout_label": "MIC", "display_unit": "µM", "value_modifier": "=", "numeric_readout": 370}
{"mol_smiles": "O=c1c2ccc(F)cc2ncn1CCCCCCn1cnc([N+](=O)[O-])c1", "readout_label": "MIC", "display_unit": "µM", "value_modifier": "=", "numeric_readout": 360}
{"mol_smiles": "O=c1c2ccc(Cl)cc2ncn1CCn1cnc([N+](=O)[O-])c1", "readout_label": "MIC", "display_unit": "µM", "value_modifier": ">", "numeric_readout": 1600}
